- Tested on: Rattus norvegicus
- Experiment Summary: Distribution (percent dose/g of tissue) of radioactivity 24 hr after intravenous administration of [125I]-labeled compound in rat lung
- Type: ADME, organism-based
- Conditions: in vivo
Metric: Activity

{"Compound": "CC(C)CCCC(C)C1CCC2C3CC=C4CC(OC(=O)c5ccccc5I)CCC4(C)C3CCC12C (stereo not given)", "Measurement Target": "Rattus norvegicus", "Metric": "Activity", "Measurement": "0.94 % dose (g of tissue)-1"}

Record Activity per entry; entries follow.
1. CC(C)CCCC(C)C1CCC2C3CC=C4CC(OC(=O)Cc5cccc(I)c5)CCC4(C)C3CCC12C (stereo not given)
2. CC(C)CCCC(C)C1CCC2C3CC=C4CC(OC(=O)Cc5ccccc5I)CCC4(C)C3CCC12C (stereo not given)
3. CC(C)CCCC(C)C1CCC2C3CC=C4CC(OC(=O)c5cc(I)cc(I)c5I)CCC4(C)C3CCC12C (stereo not given)
4. CC(C)CCCC(C)C1CCC2C3CC=C4CC(OC(=O)c5ccc(I)cc5)CCC4(C)C3CCC12C (stereo not given)
5. CC(C)CCCC(C)C1CCC2C3CC=C4CC(OC(=O)Cc5ccc(I)cc5)CCC4(C)C3CCC12C (stereo not given)
6. CC(C)CCCC(C)C1CCC2C3CC=C4CC(OC(=O)CCc5ccc(I)cc5)CCC4(C)C3CCC12C (stereo not given)

["0.27 % dose (g of tissue)-1", "0.43 % dose (g of tissue)-1", "0.7 % dose (g of tissue)-1", "0.94 % dose (g of tissue)-1", "0.65 % dose (g of tissue)-1", "0.5 % dose (g of tissue)-1"]

====

Provide the recorded Activity for the entries that follow.
- Tested on: Rattus norvegicus
- Experiment Summary: Distribution (percent dose/g of tissue) of radioactivity 24 hr after intravenous administration of [125I]-labeled compound in rat adrenal cortex
- Type: ADME, organism-based
- Conditions: in vivo

Consider the following illustrative entries.
{"Molecule": "CC(C)CCCC(C)C1CCC2C3CC=C4CC(OC(=O)c5cccc(I)c5)CCC4(C)C3CCC12C (stereo not given)", "Activity": "12.76 % dose (g of tissue)-1"}
{"Molecule": "CC(C)CCCC(C)C1CCC2C3CC=C4CC(OC(=O)c5ccc(I)cc5)CCC4(C)C3CCC12C (stereo not given)", "Activity": "3.86 % dose (g of tissue)-1"}
{"Molecule": "CC(C)CCCC(C)C1CCC2C3CC=C4CC(OC(=O)c5cc(I)cc(I)c5I)CCC4(C)C3CCC12C (stereo not given)", "Activity": "9.03 % dose (g of tissue)-1"}

Kindly give each listed record's Activity.
1. CC(C)CCCC(C)C1CCC2C3CC=C4CC(OC(=O)CCc5ccc(I)cc5)CCC4(C)C3CCC12C (stereo not given)
2. CC(C)CCCC(C)C1CCC2C3CC=C4CC(OC(=O)c5cc(I)c(I)c(I)c5)CCC4(C)C3CCC12C (stereo not given)

["3.56 % dose (g of tissue)-1", "7.48 % dose (g of tissue)-1"]

====

- Test system: Rattus norvegicus
- Experiment Summary: Distribution (percent dose/g of tissue) of radioactivity 24 hr after intravenous administration of [125I]-labeled compound in rat spleen
- Type: ADME, organism-based
- Conditions: in vivo
Metric: Activity

Known results for compounds:
{"Compound": "CC(C)CCCC(C)C1CCC2C3CC=C4CC(OC(=O)Cc5ccc(I)cc5)CCC4(C)C3CCC12C (stereo not drawn)", "Activity": "0.5 % dose (g of tissue)-1"}
{"Compound": "CC(C)CCCC(C)C1CCC2C3CC=C4CC(OC(=O)Cc5cccc(I)c5)CCC4(C)C3CCC12C (stereo not drawn)", "Activity": "0.77 % dose (g of tissue)-1"}
{"Compound": "CC(C)CCCC(C)C1CCC2C3CC=C4CC(OC(=O)CCCc5ccc(I)cc5)CCC4(C)C3CCC12C (stereo not drawn)", "Activity": "0.16 % dose (g of tissue)-1"}
{"Compound": "CC(C)CCCC(C)C1CCC2C3CC=C4CC(OC(=O)c5cccc(I)c5)CCC4(C)C3CCC12C (stereo not drawn)", "Activity": "1.86 % dose (g of tissue)-1"}

Quick one: give me Activity for each item below, same order please.
1. CC(C)CCCC(C)C1CCC2C3CC=C4CC(OC(=O)c5ccccc5I)CCC4(C)C3CCC12C (stereo not drawn)
2. CC(C)CCCC(C)C1CCC2C3CC=C4CC(OC(=O)c5ccc(I)cc5)CCC4(C)C3CCC12C (stereo not drawn)

1. 1.89 % dose (g of tissue)-1
2. 1.49 % dose (g of tissue)-1

Please go through the list and note Activity for each compound.
1. CC(C)CCCC(C)C1CCC2C3CC=C4CC(OC(=O)CCc5ccc(I)cc5)CCC4(C)C3CCC12C (stereo not drawn)
2. CC(C)CCCC(C)C1CCC2C3CC=C4CC(OC(=O)Cc5ccccc5I)CCC4(C)C3CCC12C (stereo not drawn)

1: 0.51 % dose (g of tissue)-1; 2: 1.31 % dose (g of tissue)-1

Attribution: ChEMBL document CHEMBL1122065
